system: 186277-243-T-J2-PDC complex spheroids, viability; assay: Anticancer human tumor 186277-243-T-J2-PDC patient-derived colon adenocarcinoma cell line growth inhibition [RAS]; details: second compound 0.316 µM; first compound 0.1 µM; active = viability on the fitted dose curve at most 10% of control; inactive = the rest;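 also: spheroids exposed to compounds for 7 days before viability read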
Your reply should match one of these outcome classes. active, inactive

In: Write down the call the test reported for this compound. Item: CC(Nc1ccc2c(c1)OCCn1cc(N3C(=O)OCC3C(F)F)nc1-2)C(N)=O (stereo not drawn) + C#Cc1c(F)ccc2cc(O)cc(-c3ncc4c(N5CC6CCC(C5)N6)nc(OCC56CCCN5CC(F)C6)nc4c3F)c12
Out: active

In: Write down the call the test reported for this compound. Item: CCN1CCN(Cc2ccc(Nc3ncc(F)c(-c4cc(F)c5nc(C)n(C(C)C)c5c4)n3)nc2)CC1 + C=CC(=O)N1CCN(c2nc(OCC3CCCN3C)nc3c(F)c(-c4nc(N)cc(C)c4C(F)(F)F)c(Cl)cc23)C(C)C1
Out: inactive

In: Write down the call the test reported for this compound. Item: CCN1CCN(Cc2ccc(Nc3ncc(F)c(-c4cc(F)c5nc(C)n(C(C)C)c5c4)n3)nc2)CC1 + C#Cc1c(F)ccc2cc(O)cc(-c3ncc4c(N5CC6CCC(C5)N6)nc(OCC56CCCN5CC(F)C6)nc4c3F)c12
Out: inactive

In: Write down the call the test reported for this compound. Item: C=CC(=O)N1CCN(c2nc(OCC3CCCN3C)nc3c(F)c(-c4nc(N)cc(C)c4C(F)(F)F)c(Cl)cc23)C(C)C1 (stereo not drawn) + C#Cc1c(F)ccc2cc(O)cc(-c3ncc4c(N5CC6CCC(C5)N6)nc(OCC56CCCN5CC(F)C6)nc4c3F)c12
Out: inactive

In: Write down the call the test reported for this compound. Item: C=CC(=O)Nc1cc(Nc2nccc(-c3cn(C)c4ccccc34)n2)c(OC)cc1N(C)CCN(C)C + C#Cc1c(F)ccc2cc(O)cc(-c3ncc4c(N5CC6CCC(C5)N6)nc(OCC56CCCN5CC(F)C6)nc4c3F)c12
Out: inactive

In: Write down the call the test reported for this compound. Item: CC1(O)CCCC1n1c(=O)c(C(F)F)cc2cnc(NC3CCN(S(C)(=O)=O)CC3)nc21 (stereo not drawn) + C#Cc1c(F)ccc2cc(O)cc(-c3ncc4c(N5CC6CCC(C5)N6)nc(OCC56CCCN5CC(F)C6)nc4c3F)c12
Out: inactive

In: Write down the call the test reported for this compound. Item: Cc1nc(N2CCC3(CC2)COC(C)C3N)c(CO)nc1Sc1ccnc(N)c1Cl (stereo not drawn) + C=CC(=O)N1CCN(c2nc(OCC3CCCN3C)nc3c(F)c(-c4nc(N)cc(C)c4C(F)(F)F)c(Cl)cc23)C(C)C1
Out: inactive

In: Write down the call the test reported for this compound. Item: Cc1nc(N2CCC3(CC2)COC(C)C3N)c(CO)nc1Sc1ccnc(N)c1Cl (stereo not drawn) + C#Cc1c(F)ccc2cc(O)cc(-c3ncc4c(N5CC6CCC(C5)N6)nc(OCC56CCCN5CC(F)C6)nc4c3F)c12
Out: inactive
